From: paper PMC11855827

Tested on: C. elegans
measurement notes: microbe, parasite or virus in culture
stated conditions: Caenorhabditis elegans, 24 h, read-out: Percentage of motility inhibition 24 h, Table S2, C. elegans SS assay, 110 μM, 24 h, averages of 4 data points
assay endpoint: inhibition at 110 µM
Hey, just the number and the unit after it is fine.

Tell us which inhibition at 110 µM value is on record for O=c1c2ccccc2[se]n1-c1ccccc1 [Ebselen]
12%

Tell us which inhibition at 110 µM value is on record for COc1c2ccoc2nc2c(O)cccc12 [Robustine]
7%

Tell us which inhibition at 110 µM value is on record for CCN1C[C@]2(COC)[C@H](O)C[C@H](OC)[C@]34C1[C@H]([C@H](OC)[C@H]23)[C@]1(O)[C@H]2[C@@H](O)[C@](O)(C[C@H]24)[C@@H](OC)[C@@H]1O [Aconine]
0%

// moving on: another record for inhibition at 110 µM
Tell us which inhibition at 110 µM value is on record for C=C1CCC[C@]2(C)C[C@]3(O)OC(=O)C(C)=C3C[C@@H]12 [Atractylenolide III]
6%

====

Consider the following compounds; for each one, report its inhibition at 110 µM.
Tested on: C. elegans
measurement notes: microbe, parasite or virus in culture
stated conditions: Caenorhabditis elegans, 0 h, read-out: Percentage of motility inhibition 0 h, Table S2, C. elegans SS assay, 110 μM, 0 h, averages of 4 data points
Numbers only, in %.

Use these answered entries as a reference point.
Tell us which inhibition at 110 µM value is on record for C[C@@H]1O[C@@H](O[C@H]2CC[C@]3(C=O)[C@H]4CC[C@]5(C)[C@@H](C6=CC(=O)OC6)CC[C@]5(O)[C@@H]4CC[C@]3(O)C2)[C@H](O)[C@H](O)[C@H]1O
2

Tell us which inhibition at 110 µM value is on record for O=C(CCc1ccc(O)c(O)c1)NCCCNCCCCNCCCNC(=O)CCc1ccc(O)c(O)c1
0

Tell us which inhibition at 110 µM value is on record for COc1cc(-c2coc3cc4c(c(OC)c3c2=O)OCO4)cc(OC)c1OC
26

Hi! Can you tell me inhibition at 110 µM for each of these compounds?
1. COC(=O)N[C@H](C(=O)N1CCC[C@H]1c1nc(-c2ccc(-c3ccc(-c4c[nH]c([C@@H]5CCCN5C(=O)[C@@H](NC(=O)OC)C(C)C)n4)cc3)cc2)c[nH]1)C(C)C
2. CC=C1CN(C)C2Cc3c([nH]c4ccccc34)C(c3cc4[nH]c5c(c4cc3OC)CCN3CC4CC(CC)C3C5(C(=O)OC)C4)CC1C2C(=O)OC (stereo not drawn)
3. C[C@@H](c1ncncc1F)[C@](O)(Cn1cncn1)c1ccc(F)cc1F

1: 44; 2: 0; 3: 19

====

System: C. elegans
measurement notes: microbe, parasite or virus in culture
stated conditions: Caenorhabditis elegans, 0 h, read-out: Percentage of motility inhibition 0 h, Table S2, C. elegans SS assay, 110 μM, 0 h, averages of 4 data points
Consider the following compounds; for each one, report its inhibition at 110 µM.
Numbers only, in %.

Use these answered entries as a reference point.
Tell us which inhibition at 110 µM value is on record for Cn1c([N+](=O)[O-])cnc1COC(N)=O
9

Tell us which inhibition at 110 µM value is on record for C[C@H]1CC[C@@H]2[C@@H](C)[C@H]3[C@H](C[C@H]4[C@@H]5CC=C6C[C@@H](O)CC[C@]6(C)[C@H]5CC[C@]34C)N2C1
0

Tell us which inhibition at 110 µM value is on record for C[C@@H]1C(=O)O[C@H]2C[C@@]34[C@H]5C[C@@H](C(C)(C)C)[C@]36[C@@H](OC(=O)[C@@H]6O)O[C@@]4(C(=O)O5)[C@]21O [Ginkgolide A]
2

Tell us which inhibition at 110 µM value is on record for C/C(=C\C(=O)CC(C)C(=O)O)[C@H]1CC(=O)[C@@]2(C)C3=C(C(=O)C[C@]12C)[C@@]1(C)CC[C@H](O)C(C)(C)[C@@H]1C[C@@H]3O (some centres unmarked)
0

Tell us which inhibition at 110 µM value is on record for C=C[C@](C)(O)CC[C@@H]1[C@@]2(C)CCCC(C)(C)[C@@H]2CC[C@@]1(C)O
28

Hi! Can you tell me inhibition at 110 µM for each of these compounds?
1. CC(C)c1ccc2c(c1O)CC[C@H]1C3=C(CC[C@]21C)C(=O)OC3 [Triptophenolide]
2. CSCCC(N)C(=O)O (racemic)
3. COC(=O)C1=CO[C@@H](O)[C@@H]2C(CO)=CC[C@H]12
4. O=C(O)[C@@H]1[C@H]2C[C@H]3c4[nH]c5ccccc5c4CCN3C[C@@H]2CC[C@@H]1O
5. COc1ccc2c(c1OC)CC1c3c(cc4c(c3-2)OCO4)CCN1C (centres unmarked)
6. O=C(CCCCc1ccc2c(c1)OCO2)N1CCCCC1 [Tetrahydropiperine]
7. C/C=C(/C)C(=O)O[C@H]1[C@H](O)[C@]2(COC(C)=O)[C@H](O)C[C@]3(C)C(=CC[C@@H]4[C@@]5(C)CC[C@H](O[C@@H]6O[C@H](C(=O)O)[C@@H](O[C@@H]7O[C@H](CO)[C@@H](O)[C@H](O)[C@H]7O)[C@H](O)[C@H]6O[C@@H]6O[C@H](CO)[C@@H](O)[C@H](O)[C@H]6O)[C@](C)(CO)[C@@H]5CC[C@]43C)[C@@H]2CC1(C)C
8. OC(Cn1cncn1)(Cn1cncn1)c1ccc(F)cc1F

[11, 6, 0, 4, 0, 0, 9, 7]

Tell us which inhibition at 110 µM value is on record for COc1cc2c(=O)c(-c3ccc(O)cc3)coc2cc1O
0

====

Test system: C. elegans
measurement notes: microbe, parasite or virus in culture
stated conditions: Caenorhabditis elegans, 0 h, read-out: Percentage of motility inhibition 0 h, Table S2, C. elegans SS assay, 110 μM, 0 h, averages of 4 data points
assay endpoint: inhibition at 110 µM

Use these answered entries as a reference point.
Tell us which inhibition at 110 µM value is on record for C=CC1=C(C(=O)O)N2C(=O)[C@@H](NC(=O)/C(=N\O)c3csc(N)n3)[C@H]2SC1
0%

Tell us which inhibition at 110 µM value is on record for O=C(/C=C/c1ccc(O[C@@H]2O[C@H](CO)[C@@H](O)[C@H](O)[C@H]2O)cc1)c1ccc(O)cc1O
24%

Tell us which inhibition at 110 µM value is on record for CC(=O)OC[C@]12[C@H](OC(C)=O)[C@H](OC(C)=O)[C@@H]3[C@@H](OC(C)=O)[C@@]14O[C@@]3(C)COC(=O)c1cccnc1CCC(C)C(=O)O[C@@H]([C@H](OC(=O)c1ccccc1)[C@@H]2OC(C)=O)[C@]4(C)O (stereo partly drawn)
23%

Tell us which inhibition at 110 µM value is on record for C[C@@H]1CCC=C2C(=O)C[C@H]3OOC(C)(C)[C@H]3[C@]21C
0%

Hi! Can you tell me inhibition at 110 µM for each of these molecules?
1. C[C@@H]1O[C@@H](OC[C@H]2O[C@@H](Oc3c(-c4ccc(O)c(O)c4)oc4cc(O)cc(O)c4c3=O)[C@H](O)[C@@H](O)[C@@H]2O)[C@H](O)[C@H](O)[C@H]1O
2. CC(=O)O[C@H]1CC(=O)OC(C)(C)[C@@H]2CC(=O)[C@]3(C)[C@H](CC[C@@]4(C)[C@H](c5ccoc5)OC(=O)[C@H]5O[C@]543)[C@@]12C

["4%", "0%"]

====

Consider the following compounds; for each one, report its inhibition at 110 µM.
Test system: C. elegans
measurement notes: microbe, parasite or virus in culture
stated conditions: Caenorhabditis elegans, 24 h, read-out: Percentage of motility inhibition 24 h, Table S2, C. elegans SS assay, 110 μM, 24 h, averages of 4 data points
Give bare numbers, in %.

Use these answered entries as a reference point.
Tell us which inhibition at 110 µM value is on record for CCN1C[C@]2(COC)CC[C@H](OC)[C@]34C1[C@H]([C@H](OC)[C@H]23)[C@@]1(OC(C)=O)C[C@H](OC)[C@@]2(O)C[C@@H]4[C@@H]1[C@H]2OC(=O)c1ccc(OC)cc1
0

Tell us which inhibition at 110 µM value is on record for C=C(CCC=C(C)C)[C@H]1CC[C@]2(C)[C@@H]1[C@H](O)C[C@@H]1[C@@]3(C)C[C@@H](O)[C@H](O[C@@H]4O[C@H](CO)[C@@H](O)[C@H](O)[C@H]4O[C@@H]4O[C@H](CO)[C@@H](O)[C@H](O)[C@H]4O)C(C)(C)[C@@H]3CC[C@]12C
16

Tell us which inhibition at 110 µM value is on record for CC[C@H](C)[C@H](N)C(=O)O
17

Hi! Can you tell me inhibition at 110 µM for each of these compounds?
1. COC(=O)c1c2c(c3ccccc3c1O)OC(C)(C)C=C2
2. COc1cc(NS(=O)(=O)c2ccc(N)cc2)ncn1
3. CC(C)=CCc1c(O)c(CC=C(C)C)c2oc3c(O)cccc3c(=O)c2c1O

12
1
0
